The measured values listed here are drawn from PubChem BioAssay (NCI).

System: OVCAR-3 ovarian
Protocol summary: NCI-60 one-dose screen, 48 h (100 = growth as untreated, 0 = no growth, -100 = all killed)
Stated conditions: 10 µM unless noted
Compounds without any hit were thinned out: in the full panel of roughly 83,000, 20% have a hit.
The reader will find reported growth values listed item by item below.
Give just the number in %; leave the unit off.

Use these answered entries as a reference point.
INSERT INTO assay_data (compound, endpoint, observed_result) VALUES
  ('CCOC(=O)/C(C#N)=C1/NNC(=Nc2cccnc2)S1', 'growth', 101),
  ('O=S(=O)(NCCNc1nccc(-c2c(-c3cccc(O)c3)nc3occn23)n1)c1cccc(F)c1', 'growth', 94.7),
  ('N#C/C(=C\c1c(-c2ccccc2)[nH]c2ccccc12)C(=O)c1ccc(Cl)cc1', 'growth', -33.2),
  ('CCOC(=O)[C@@H]1CCCN(S(=O)(=O)c2ccc(S(=O)(=O)N(CC)CC)c(F)c2)C1', 'growth', 88),
  ('COc1cccc(/C=N/NC(=O)c2cnn3c2NC(c2ccccc2)C3)c1Oc1ccccc1 (stereo unspecified)', 'growth', 42),
  ('O=[N+]([O-])CC(c1ccccc1F)c1c[nH]c2ccccc12 (stereo unspecified)', 'growth', 77.9),
  ('COc1ccc(C(=O)/C=C/c2cc3ccccc3n3nnnc23)cc1', 'growth', 113),
  ('c1ccc2c(-c3c[nH]c4ccccc34)c3c(cc2c1)[nH]c1ccccc13', 'growth', 59.3),
  ('N#Cc1c(-c2ccccc2)nc2c(c(-c3ccccc3)nn2-c2ccccc2)c1-c1ccc(O)cc1', 'growth', 54.2),
  ('COc1ccc(C(=O)C2C(C#N)C(C#N)C3C=Cc4ccccc4N32)cc1 (stereo unspecified)', 'growth', -11.9);

// moving on: another record for growth
# lookup: growth of COc1cc(C2C3=C(COC3=O)N(CCO)c3cc4c(cc32)CCC4)cc(OC)c1OC (stereo unspecified)
-33.4
